This collection of values is drawn from paper PMC6298601.

# IC50 per record follows
- target_desc: recombinant human MAO-B (Homo sapiens, UniProt P27338)
- Sequence (P27338 whole entry): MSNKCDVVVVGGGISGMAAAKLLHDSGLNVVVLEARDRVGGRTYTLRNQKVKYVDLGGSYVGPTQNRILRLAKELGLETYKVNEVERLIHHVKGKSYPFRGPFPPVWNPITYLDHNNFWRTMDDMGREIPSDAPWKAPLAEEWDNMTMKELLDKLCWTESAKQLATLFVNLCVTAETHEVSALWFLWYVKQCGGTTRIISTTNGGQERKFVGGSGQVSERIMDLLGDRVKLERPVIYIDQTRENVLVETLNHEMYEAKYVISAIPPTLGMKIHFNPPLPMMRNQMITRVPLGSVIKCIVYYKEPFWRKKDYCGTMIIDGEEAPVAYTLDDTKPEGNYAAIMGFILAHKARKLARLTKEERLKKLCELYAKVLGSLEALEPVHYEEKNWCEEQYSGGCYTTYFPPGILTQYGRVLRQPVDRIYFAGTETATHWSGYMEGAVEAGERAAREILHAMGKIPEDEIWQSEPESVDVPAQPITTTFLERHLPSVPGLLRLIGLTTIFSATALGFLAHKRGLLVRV
- protocol_notes: biochemical
- Format: biochemical
- conditions: read-out: MAO-B IC50 (μM) ± S.D.; kynuramine 50 μM; test compounds 0.01 to 100 μM; mean ± S.D. of triplicate

molecule | target_desc | obs_value
CCCCCCCC/C=C\CCCCCCCC(=O)NCCO [Oleylethanolamide] | recombinant human MAO-B (Homo sapiens, UniProt P27338) | > 100 µM

Hello, I am looking for reported IC50 with recombinant human MAO-B (Homo sapiens, UniProt P27338) for CCCCC/C=C\C/C=C\C/C=C\C/C=C\CCCCOC(CO)CO . Could you help?
18.2 µM

And what about the molecule CCCCC/C=C\C/C=C\C/C=C\C/C=C\CCCC(=O)N[C@H](C)CO [(R)-(+)-Methanandamide] ?
51.1 µM

Now the molecule CCCCC/C=C\C/C=C\C/C=C\C/C=C\CCCC(=O)OCCN
0.71 µM

----------
- target_desc: recombinant human MAO-A (Homo sapiens)
- Sequence (P21397 whole entry): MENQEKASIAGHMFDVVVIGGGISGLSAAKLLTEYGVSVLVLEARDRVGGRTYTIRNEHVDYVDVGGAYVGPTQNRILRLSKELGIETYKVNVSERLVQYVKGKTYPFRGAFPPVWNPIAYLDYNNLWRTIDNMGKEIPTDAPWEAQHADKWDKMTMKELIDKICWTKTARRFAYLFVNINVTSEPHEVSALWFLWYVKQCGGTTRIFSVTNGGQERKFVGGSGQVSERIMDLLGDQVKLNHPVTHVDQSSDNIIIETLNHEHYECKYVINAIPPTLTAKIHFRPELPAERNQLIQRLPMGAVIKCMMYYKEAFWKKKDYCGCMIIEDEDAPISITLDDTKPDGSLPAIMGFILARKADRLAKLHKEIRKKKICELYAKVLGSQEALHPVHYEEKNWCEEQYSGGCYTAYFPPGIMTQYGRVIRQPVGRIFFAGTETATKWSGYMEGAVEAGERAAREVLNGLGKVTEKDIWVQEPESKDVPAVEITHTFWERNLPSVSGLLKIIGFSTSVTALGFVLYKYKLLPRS
- protocol_notes: Fluorometric kynuramine deamination assay, recombinant human MAO-A inhibition
property_measured: IC50

molecule | target_desc | obs_value
CCCCC/C=C\C/C=C\C/C=C\C/C=C\CCCC(=O)OC(CO)CO | recombinant human MAO-A (Homo sapiens) | > 100 µM

# evaluate next
What value of IC50 has been recorded for this entry: CCCCC/C=C\C/C=C\C/C=C\C/C=C\CCCC(=O)NCCO [Anandamide]
> 100 µM

----------
- target_desc: recombinant human MAO-B (Homo sapiens, UniProt P27338)
- Assay type: biochemical
- conditions: read-out: MAO-B Ki (μM) ± S.D.; kynuramine 1.90 to 500 μM; mean ± S.D. of triplicate
property_measured: Ki (µM)
Write the number in µM without appending the unit.

Entry CCCCC/C=C\C/C=C\C/C=C\C/C=C\CCCC(=O)OCCN [Virodhamine] has what Ki?
0.258

----------
- target_desc: recombinant human MAO-B (Homo sapiens)
- protocol_notes: biochemical
- Assay type: biochemical
property_measured: pIC50
Please keep in mind that pIC50 is minus log10 of the molar concentration; only the number is needed.

compound | pIC50
CCCCC/C=C\C/C=C\C/C=C\C/C=C\CCCC(=O)OC(CO)CO | 4.30

Look up pIC50: CCCCC/C=C\C/C=C\C/C=C\C/C=C\CCCC(=O)NCCO [Anandamide]
4.40
